- measurement_target: T1, LTKTG-EGFL (human LTK amino acids 63-420) (human, UniProt P29376 63-420)
- T1 construct: Fc-His6 tag removed by caspase 3; also called LTK (in BLI, SEC-MALLS and ITC)
- T1 sequence: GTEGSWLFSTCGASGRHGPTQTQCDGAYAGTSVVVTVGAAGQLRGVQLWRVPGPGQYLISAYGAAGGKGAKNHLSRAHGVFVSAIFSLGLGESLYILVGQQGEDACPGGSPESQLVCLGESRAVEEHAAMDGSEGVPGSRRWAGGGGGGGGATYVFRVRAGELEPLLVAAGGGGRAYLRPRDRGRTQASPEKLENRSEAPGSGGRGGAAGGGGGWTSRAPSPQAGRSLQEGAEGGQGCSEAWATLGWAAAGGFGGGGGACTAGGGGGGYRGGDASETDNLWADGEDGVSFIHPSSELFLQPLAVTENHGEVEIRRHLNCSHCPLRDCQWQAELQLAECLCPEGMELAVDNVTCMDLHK
- experiment_description: BLI, biotinylated ALKAL2 R123E on streptavidin biosensors, LTKTG-EGFL in solution, dilution series 6.4 µM-400 nM

| binder | Kd, nM |
| --- | --- |
| ALKAL2^R123E (residues 78-152) (ligand, human, UniProt Q6UX46 78-152, looked up, range 78-152; also called ALKAL2 site 1 mutant R123E) PSPEQRVEIVPRDLRMKDKFLKHLTGPLYFSPKCSKHFHRLYHNTEDCTIPAYYKRCARLLTRLAVSPVCMEDKQ | 2300 |
